Test system: P94_40
TEST_DETAILS: qHTS profiling for inhibitors of Plasmodium falciparum proliferation (AID 504749); further: nearly all actives have a fitted effect of over 60% in size
EXPERIMENTAL_CONDITIONS: P. falciparum in erythrocytes, SYBR Green DNA, 72 h; series mostly up to 28.7 µM
Inconclusive results are not listed. Calls of active or inactive are those of the source. The call rests on the fitted dose curve; in most records, active means well fitted inhibition curve with a large enough effect; inconclusive means small, poorly fitted or top-dose-only effect; inactive means flat fitted curve, though single readings scatter.
API: response.call in T for active, F for inactive

Check out these entries, answers already filled in.
>>> qualitative_label("Cc1cc(-c2ccccc2)nnc1NCCN1CCOCC1")
"F"
>>> qualitative_label("CCOC(=O)C(C#N)=C(c1ccccc1)c1ccccc1")
"F"
>>> qualitative_label("CC1(COc2ccc(CC3SC(=O)NC3=O)cc2)CCCCC1 (stereo not drawn)")
"F"
>>> qualitative_label("CC(=O)Nc1ccc(OCC(O)CNC(C)C)cc1 (stereo not drawn)")
"F"

Query: # lookup: test call for `COc1cc(C(=O)N2CCCCCCC2)cc(OC)c1OC`
Result: F

Query: # lookup: test call for `O=[N+]([O-])c1cccc(S(=O)(=O)NCCNS(=O)(=O)c2cccc([N+](=O)[O-])c2)c1`
Result: F

Query: # lookup: test call for `CCCN(CCc1cccs1)[C@H]1CCc2c(O)cccc2C1`
Result: T

Query: # lookup: test call for COP(=O)(OC)OC(c1ccc(Cl)cc1)P(=O)(OC)OC (stereo not drawn)
Result: F

Query: # lookup: test call for `CN(CCCN1c2ccccc2CCc2ccccc21)CC(=O)c1ccc(Cl)cc1`
Result: T

Query: # lookup: test call for `FC(F)(F)C(F)(F)C(F)(F)C(F)(F)C(F)(F)C(F)(F)C(F)(F)C(F)(F)Br`
Result: F

* * *

Test system: CP335
TEST_DETAILS: qHTS profiling for inhibitors of Plasmodium falciparum proliferation (AID 504749); further: nearly all actives have a fitted effect of over 60% in size
EXPERIMENTAL_CONDITIONS: P. falciparum in erythrocytes, SYBR Green DNA, 72 h; series mostly up to 28.7 µM
Results filed as inconclusive are left out. Calls of active or inactive are those of the source. Calls follow the shape of the dose curve; as a rule, active = well fitted inhibition curve with a large enough effect; inconclusive = small, poorly fitted or top-dose-only effect; inactive = flat fitted curve, though single readings scatter.
API: response.call in YES = active, NO = inactive

>>> qualitative_label("CC(=O)NC(=O)c1ccccc1O")
"NO"
>>> qualitative_label("NC(=O)n1c(O)c(C(=O)c2cccs2)c2cc(Cl)ccc21")
"NO"
>>> qualitative_label("CC(C)NCC(O)c1ccc2ccccc2c1 (stereo unspecified)")
"YES"
>>> qualitative_label("CCN1/C(=C/C=C/c2sc3ccccc3[n+]2CC)Sc2ccccc21")
"YES"
>>> qualitative_label("CCCCC(CC)COC(=O)/C=C/c1ccc(OC)cc1 (stereo unspecified)")
"NO"
>>> qualitative_label("CC1=C(C(=O)O)N2C(=O)[C@@H](NC(=O)[C@H](N)c3ccccc3)[C@H]2SC1")
"NO"

Query: # lookup: test call for `CCCCN=C(N)N=C(N)N`
Result: NO

Query: # lookup: test call for `CCCN(CCC)S(=O)(=O)c1ccc(C(=O)O)cc1`
Result: NO

Query: # lookup: test call for CC(=O)Nc1ccc(OCC(O)CNC(C)C)cc1 (stereo unspecified)
Result: NO

Query: # lookup: test call for `O=C(O)CCC(=O)Nc1ccc(S(=O)(=O)Nc2nccs2)cc1`
Result: NO

Query: # lookup: test call for `COc1ccc(C(=O)c2ccccc2O)c(O)c1`
Result: NO

Query: # lookup: test call for CC(C)CCCC(C)N (stereo unspecified)
Result: NO

Query: # lookup: test call for `C/C=C/C=N/NC(=O)c1ccncc1`
Result: NO

Query: # lookup: test call for `Cc1ncc(CO)c(C=O)c1O`
Result: NO

Query: # lookup: test call for `CCN(CC)CCNC(=O)c1cc(Br)c(N)cc1OC`
Result: NO

Query: # lookup: test call for `Nc1nc(-c2ccccc2)c(Br)c(=O)[nH]1`
Result: NO

Query: # lookup: test call for `CC(=O)OC[C@H]1O[C@@H](n2ncc(=O)[nH]c2=O)[C@H](OC(C)=O)[C@@H]1OC(C)=O`
Result: NO

Query: # lookup: test call for COP(=O)(OC)OC(c1ccc(Cl)cc1)P(=O)(OC)OC (stereo unspecified)
Result: NO

Query: # lookup: test call for CCC1Nc2cc(Cl)c(S(N)(=O)=O)cc2S(=O)(=O)N1 (stereo unspecified)
Result: NO

Query: # lookup: test call for `Nc1nc(N)c(-c2ccccc2)s1`
Result: NO

Query: # lookup: test call for `CC(=O)OCC(=O)[C@H]1CC[C@H]2[C@@H]3CCC4=CC(=O)CC[C@]4(C)[C@H]3CC[C@]12C`
Result: NO

Query: # lookup: test call for `NC(=S)N/N=C/c1cccnc1`
Result: NO

Query: # lookup: test call for Cc1cc(C)cc(OCC2CNC(=O)O2)c1 (stereo unspecified)
Result: NO

Query: # lookup: test call for `c1ccc(-c2nc[nH]c2-c2ccccc2)cc1`
Result: NO

Query: # lookup: test call for `CCOc1cc(OCC)c(C(=O)CCC(=O)O)cc1OCC`
Result: NO

Query: # lookup: test call for `COc1cc([C@H]2Oc3cc([C@H]4Oc5cc(O)cc(O)c5C(=O)[C@@H]4O)ccc3O[C@@H]2CO)ccc1O`
Result: NO

Query: # lookup: test call for `CN(CCCN1c2ccccc2CCc2ccccc21)CC(=O)c1ccc(Cl)cc1`
Result: YES
